- Tested on: MDA-MB-231/ATCC
- Test description: NCI-60 SRB screen, breast cancer
- Assay type: cell-based, human
- Conditions used: Homo sapiens; MDA-MB-231; obtained from NCI; five concentrations 0.01–100 μM; 48 h; read-out: Antiproliferative Activity IC50
pIC50: −log10 of the molar value.
Outcome measure: pIC50

INSERT INTO assay_data (compound, target_under_test, numeric_value) VALUES
  ('C=C(C)C1C(=O)N(c2cc(OC)c(OC)c(OC)c2)C1c1ccc(OC)c(O)c1 (stereo not drawn) [9q]', 'MDA-MB-231/ATCC', 7.62),
  ('C=CCC1C(=O)N(c2cc(OC)c(OC)c(OC)c2)C1c1ccc(OC)c(O)c1 (stereo not drawn) [10p]', 'MDA-MB-231/ATCC', 7.56),
  ('C=C(C)C1C(=O)N(c2cc(OC)c(OC)c(OC)c2)C1c1ccc(OC)cc1 (stereo not drawn) [9h]', 'MDA-MB-231/ATCC', 7.50);

----------
Measurement record for MCF-7; quantity recorded: GI50.
Outcome measure: GI50 (nM)

INSERT INTO measurements (compound, outcome_measure, value_modifier, numeric_value) VALUES
  ('C=CCC1C(=O)N(c2cc(OC)c(OC)c(OC)c2)C1c1ccc(OC)c(O)c1 (stereo not drawn) [10p]', 'GI50', '=', 35.3),
  ('C=C(C)C1C(=O)N(c2cc(OC)c(OC)c(OC)c2)C1c1ccc(OC)c(N)c1 (stereo not drawn)', 'GI50', '=', 32.4),
  ('COc1ccc(C2C(C(C)C)C(=O)N2c2cc(OC)c(OC)c(OC)c2)cc1OP(=O)(O)O (stereo not drawn) [15b]', 'GI50', '=', 244),
  ('C=CC=CC1C(=O)N(c2cc(OC)c(OC)c(OC)c2)C1c1ccc(OC)cc1 (stereo not drawn) [11h]', 'GI50', '=', 33.5),
  ('C=C(C)C1C(=O)N(c2cc(OC)c(OC)c(OC)c2)C1c1ccc(OC)cc1 (stereo not drawn)', 'GI50', '=', 36.8),
  ('C=C(C)C1C(=O)N(c2cc(OC)c(OC)c(OC)c2)C1c1ccc(OC)c(O)c1 (stereo not drawn)', 'GI50', '<', 10);
